Reported selectivity ratio values for the following molecules.
Experiment: Selectivity index, ratio of IC50 for antiproliferative activity against human L02 cells assessed as inhibition of cell growth to IC50 for antiproliferative activity against human MCF7 cells assessed as inhibition of cell growth
Format: toxicity, cell-based
Conditions: L02 cells versus MCF7 cells, read-out: Selectivity Index
assayEndpoint: selectivity ratio

• Cc1c2c(cc3c1OCO3)C1=CC[C@@]3(C)[C@@H]4C[C@](C)(NC(=O)N5CCN(C6CCN(C)CC6)CC5)CC[C@]4(C)CC[C@]3(C)[C@]1(C)C=C2 = 1.99
• Cc1c2c(cc3nccnc13)C1=CC[C@@]3(C)[C@@H]4C[C@](C)(NC(=O)N5CCN(C6CCN(C)CC6)CC5)CC[C@]4(C)CC[C@]3(C)[C@]1(C)C=C2 = 3.57
• Cc1c2c(cc3nccnc13)C1=CC[C@@]3(C)[C@@H]4C[C@](C)(NC(=O)N5CCN(CCO)CC5)CC[C@]4(C)CC[C@]3(C)[C@]1(C)C=C2 = 1.45
